The measurements presented in this section are drawn from the supplement of paper PMC7877785.

Items are presented alongside their recorded self-splicing fitness (ln).
experiment: self-splicing fitness, log relative to wild type (ln ratio); higher = more splicing; Tetrahymena group I intron in knt gene, E. coli kanamycin selection, DiMSum; sequences stand for … in CUCUCU…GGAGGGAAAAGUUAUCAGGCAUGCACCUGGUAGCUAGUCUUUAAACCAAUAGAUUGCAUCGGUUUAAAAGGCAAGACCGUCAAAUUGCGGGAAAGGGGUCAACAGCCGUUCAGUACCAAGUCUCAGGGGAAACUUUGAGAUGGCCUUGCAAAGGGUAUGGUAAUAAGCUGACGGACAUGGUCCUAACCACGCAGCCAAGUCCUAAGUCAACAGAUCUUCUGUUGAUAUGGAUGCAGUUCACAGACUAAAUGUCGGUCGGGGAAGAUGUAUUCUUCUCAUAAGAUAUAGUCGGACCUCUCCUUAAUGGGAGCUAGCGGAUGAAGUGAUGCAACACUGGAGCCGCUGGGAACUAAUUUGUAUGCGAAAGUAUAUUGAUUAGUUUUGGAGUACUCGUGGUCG; details: 37 °C;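 further: selection with 25 µg/mL kanamycin versus none on LB agar overnight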
Form field (numeric): enter value without unit.

>>> endpoint_result("AGCAAGCAAUAUUACGCUCU")
-1.57
>>> endpoint_result("CCUUAGCAAUAUUACGGGAA")
-2.76
>>> endpoint_result("UUGUAGCAAUAUUACGGCCU")
-0.408
>>> endpoint_result("CGACAGCAAUAUUACGGAUA")
-1.91
>>> endpoint_result("UCCAAGCAAUAUUACGACCA")
-0.935
>>> endpoint_result("UCCCAGCAAUAUUACGAUUU")
-1.52
>>> endpoint_result("UUGAAGCAAUAUUACGAUGC")
-1.58

Next:
# input Name the recorded self-splicing fitness (ln) for `GUCUAGCAAUAUUACGCUGU` .
# output -0.224

---

Let's look at some sequences and their measured self-splicing fitness (ln).
experiment: self-splicing fitness, log relative to wild type (ln ratio); higher = more splicing; Tetrahymena group I intron in knt gene, E. coli kanamycin selection, DiMSum; sequences stand for … in CUCUCU…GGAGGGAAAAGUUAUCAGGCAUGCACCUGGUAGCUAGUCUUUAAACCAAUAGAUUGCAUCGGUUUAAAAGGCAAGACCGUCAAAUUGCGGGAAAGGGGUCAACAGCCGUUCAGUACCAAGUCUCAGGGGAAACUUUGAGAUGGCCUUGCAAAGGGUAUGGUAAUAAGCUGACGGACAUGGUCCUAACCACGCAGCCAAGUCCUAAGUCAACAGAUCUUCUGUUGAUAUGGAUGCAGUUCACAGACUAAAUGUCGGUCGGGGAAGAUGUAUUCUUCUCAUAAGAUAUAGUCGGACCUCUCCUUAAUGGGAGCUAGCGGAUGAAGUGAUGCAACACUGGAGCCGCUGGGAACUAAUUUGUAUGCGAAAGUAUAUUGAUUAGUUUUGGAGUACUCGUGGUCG; details: 30 °C
# respond with the number and nothing more

>>> endpoint_result("UAUCAGCAAUAUUACGGUCU")
-0.719
>>> endpoint_result("CCGGAGCAAUAUUACGGAUA")
-2.42
>>> endpoint_result("AAGCAGCAAUAUUACGCAAA")
-1.82
>>> endpoint_result("CUAUAGCAAUAUUACGGGAC")
-2.51
>>> endpoint_result("GUCAAGCAAUAUUACGAACC")
-3.76
>>> endpoint_result("CAAUAGCAAUAUUACGUGGA")
-3.29
>>> endpoint_result("GUCCAGCAAUAUUACGGAAU")
-0.712
>>> endpoint_result("ACUGAGCAAUAUUACGAAUA")
-2.97

// moving on: another record for self-splicing fitness (ln)
# input Given the entry `CAAAAGCAAUAUUACGCAUC` , report its measured self-splicing fitness (ln).
# output -3.35
